molecular target: UniProt P35414; assay: potency against CXCR6 with APJ panel – cell-based, beta-arrestin, DiscoveRx, uHTS hits, dose response (AID 624129); conditions: CXCR6 beta-arrestin (DiscoveRx) antagonist cell assay, APJ, dose range 1; call rule not given here
Reply using exactly one outcome from active, inactive

Please review the entries below; each comes with its answer.
-- ask Assay result, entry Cn1c(=O)c([N+](=O)[O-])c(Cl)c2ccccc21 — outcome?
-- reply active

-- ask Assay result, entry CC1(C)CC(=O)C2=C(C1)OC1=C(C(=O)CC(C)(C)C1)C2c1ccc(O)cc1O — outcome?
-- reply active

-- ask Assay result, entry COc1ccc([N+](=O)[O-])c(S(=O)(=O)c2ccc(Cl)cc2)n1 — outcome?
-- reply active

-- ask Assay result, entry CC(=O)OCCNc1cc(Sc2nc3ccccc3[nH]2)c2nonc2c1[N+](=O)[O-] — outcome?
-- reply active

-- ask Assay result, entry O=C(N/N=C(\c1ccccc1)c1cccnc1)c1cccc(F)c1 — outcome?
-- reply active

Further cases:
-- ask Assay result, entry CCN(c1ccccc1)S(=O)(=O)c1ccc(NC(=O)c2nc(S(C)(=O)=O)ncc2Cl)cc1 — outcome?
-- reply active

-- ask Assay result, entry Cc1ccc(-c2oc3ccccc3c(=O)c2O)cc1 — outcome?
-- reply active

-- ask Assay result, entry Cc1ccc(OCCN2C(=O)c3ccccc3C2=O)c([N+](=O)[O-])c1 — outcome?
-- reply active

-- ask Assay result, entry O=C(CSc1cccc2cccnc12)N1CCCC1 — outcome?
-- reply active
